Data provenance is paper doi:10.1101/432989.

Biological target: MazF-mt9 (Mycobacterium tuberculosis)
Assay: ITC
Kindly state pKd for each of the entries shown.
Note on pKd: it is the negative log10 of concentration, concentration in mol/L.

I'd like to know its pKd. The binder in question is MazE-mt1 (natural protein) MKLSVSLSDDDVAILDAYVKRAGLPSRSAGLQHAIRVLRYPTLEDDYANAWQEWSAAGDTDAWEQTVGDGVGDAPR
7.23

// pKd lookup, key: MazE-mt9 (natural protein) MSTSTTIRVSTQTRDRLAAQARERGISMSALLTELAAQAERQAIFRAEREASHAETTTQAVRDEDREWEGTVGDGLG
7.76
